Tested on: ZDF male rat
method-notes: Glucose lowering in vivo assay
condition-info: blood glucose, 10 mg/kg p.o. once daily for 28 days

| compound | Difference from Vehicle Control |
| --- | --- |
| CCc1nc2c(C)cc(CCOC)nc2n1[C@H]1CCc2cc(-c3ccccc3-c3nnn[nH]3)ccc21 [Example 13] | -469 mg/dL |
| CCc1nc2c(C)cc(CC(C)(C)O)nc2n1[C@H]1CCc2cc(-c3ccccc3-c3nnn[nH]3)ccc21 [Example 16] | -475 mg/dL |
| CCc1nc2c(C)cc([C@@H](O)C(C)C)nc2n1[C@H]1CCc2cc(-c3ccccc3-c3nnn[nH]3)ccc21 [Example 10] | -133 mg/dL |
| CCc1nc2c(C)cc(CCO)nc2n1[C@H]1CCc2cc(-c3ccccc3-c3nnn[nH]3)ccc21 [Example 13a] | -477 mg/dL |

---

target-under-test: Human recombinant AT1 receptor (Homo sapiens)
Sequence (P30556 whole entry): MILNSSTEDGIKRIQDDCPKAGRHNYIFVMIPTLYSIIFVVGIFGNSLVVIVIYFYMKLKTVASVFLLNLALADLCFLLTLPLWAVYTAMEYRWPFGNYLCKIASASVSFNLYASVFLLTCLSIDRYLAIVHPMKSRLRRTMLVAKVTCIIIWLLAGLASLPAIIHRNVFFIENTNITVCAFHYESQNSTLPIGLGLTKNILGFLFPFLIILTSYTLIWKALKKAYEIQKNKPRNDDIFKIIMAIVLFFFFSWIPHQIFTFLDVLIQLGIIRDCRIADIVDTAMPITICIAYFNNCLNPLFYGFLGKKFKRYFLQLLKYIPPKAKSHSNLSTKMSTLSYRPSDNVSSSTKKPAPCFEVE
method-notes: AT1 receptor radioligand binding (flashplate)
condition-info: 125I Sar1,Ile8-Angiotensin II radioligand
IC50 less than 3 nM is class 1; IC50 greater than or equal to 3 nM is class 0.

| compound | target-under-test | discrete-label |
| --- | --- | --- |
| CCc1nc2c(C)cc(CC3CCCCC3O)nc2n1[C@H]1CCc2cc(-c3ccccc3-c3nnn[nH]3)ccc21 (single isomer, unassigned) | Human recombinant AT1 receptor (Homo sapiens) | class 1 |
| CCc1nc2c(C)cc(CC3CCCCC3=O)nc2n1[C@H]1CCc2cc(-c3ccccc3-c3nnn[nH]3)ccc21 (stereo partly shown) | Human recombinant AT1 receptor (Homo sapiens) | class 1 |
| CCc1nc2c(C)cc(CC(C)O)nc2n1[C@H]1CCc2cc(-c3ccccc3-c3nnn[nH]3)ccc21 (mixture of isomers) | Human recombinant AT1 receptor (Homo sapiens) | class 1 |
| CCc1nc2c(C)cc(C(C)(O)C(C)C)nc2n1[C@H]1CCc2cc(-c3ccccc3-c3nnn[nH]3)ccc21 (stereo partly shown) | Human recombinant AT1 receptor (Homo sapiens) | class 0 |
| CCc1nc2c(C)cc([C@H](O)c3ccccc3)nc2n1[C@H]1CCc2cc(-c3ccccc3-c3nnn[nH]3)ccc21 | Human recombinant AT1 receptor (Homo sapiens) | class 1 |
| CCc1nc2c(C)cc(CCC(O)(CC)CC)nc2n1[C@H]1CCc2cc(-c3ccccc3-c3nnn[nH]3)ccc21 | Human recombinant AT1 receptor (Homo sapiens) | class 1 |
| CCc1nc2c(C)cc(CCOC)nc2n1[C@H]1CCc2cc(-c3ccccc3-c3nnn[nH]3)ccc21 | Human recombinant AT1 receptor (Homo sapiens) | class 1 |
| CCc1nc2c(C)cc(CC[C@H](O)CC)nc2n1[C@H]1CCc2cc(-c3ccccc3-c3nnn[nH]3)ccc21 | Human recombinant AT1 receptor (Homo sapiens) | class 1 |
| CCc1nc2c(C)cc(Cn3nc(C)cc3C)nc2n1[C@H]1CCc2cc(-c3ccccc3-c3nnn[nH]3)ccc21 | Human recombinant AT1 receptor (Homo sapiens) | class 0 |
| CCc1nc2c(C)cc(CCC(C)(C)O)nc2n1[C@H]1CCc2cc(-c3ccccc3-c3nnn[nH]3)ccc21 | Human recombinant AT1 receptor (Homo sapiens) | class 1 |
| CCc1nc2c(C)cc(CC(O)C(C)C)nc2n1[C@H]1CCc2cc(-c3ccccc3-c3nnn[nH]3)ccc21 (stereo partly shown) | Human recombinant AT1 receptor (Homo sapiens) | class 0 |
| CCc1nc2c(C)cc(CCc3cc(C)ccc3C)nc2n1[C@H]1CCc2cc(-c3ccccc3-c3nnn[nH]3)ccc21 | Human recombinant AT1 receptor (Homo sapiens) | class 0 |
| CCc1nc2c(C)cc([C@H](O)C(C)C)nc2n1[C@H]1CCc2cc(-c3ccccc3-c3nnn[nH]3)ccc21 | Human recombinant AT1 receptor (Homo sapiens) | class 0 |
| CCc1nc2c(C)cc(CCC3(O)CCCCC3)nc2n1[C@H]1CCc2cc(-c3ccccc3-c3nnn[nH]3)ccc21 | Human recombinant AT1 receptor (Homo sapiens) | class 1 |
| CCc1nc2c(C)cc([C@@H](O)c3ccccc3)nc2n1[C@H]1CCc2cc(-c3ccccc3-c3nnn[nH]3)ccc21 (single isomer, unassigned) | Human recombinant AT1 receptor (Homo sapiens) | class 1 |
| CCc1nc2c(C)cc(CCC(C)(O)CC(C)C)nc2n1[C@H]1CCc2cc(-c3ccccc3-c3nnn[nH]3)ccc21 (stereo partly shown) | Human recombinant AT1 receptor (Homo sapiens) | class 0 |
| CCCc1nc2c(C)cc(CC[C@@H](C)O)nc2n1[C@H]1CCc2cc(-c3ccccc3-c3nnn[nH]3)ccc21 | Human recombinant AT1 receptor (Homo sapiens) | class 1 |
| CCc1nc2c(C)cc([C@@H](OC)C(C)C)nc2n1[C@H]1CCc2cc(-c3ccccc3-c3nnn[nH]3)ccc21 | Human recombinant AT1 receptor (Homo sapiens) | class 1 |
| CCc1nc2c(C)cc(CC[C@@H](C)O)nc2n1[C@H]1CCc2cc(-c3ccccc3-c3nnn[nH]3)ccc21 (single isomer, unassigned) | Human recombinant AT1 receptor (Homo sapiens) | class 1 |
| CCc1nc2c(C)cc(COC)nc2n1[C@H]1CCc2cc(-c3ccccc3-c3nnn[nH]3)ccc21 | Human recombinant AT1 receptor (Homo sapiens) | class 1 |
| CCc1nc2c(C)cc(CCC(C)(O)C(C)(C)C)nc2n1[C@H]1CCc2cc(-c3ccccc3-c3nnn[nH]3)ccc21 (stereo partly shown) | Human recombinant AT1 receptor (Homo sapiens) | class 0 |
| CCc1nc2c(C)cc(CC(C)=O)nc2n1[C@H]1CCc2cc(-c3ccccc3-c3nnn[nH]3)ccc21 | Human recombinant AT1 receptor (Homo sapiens) | class 0 |
| CCc1nc2c(C)cc(Cn3cccn3)nc2n1[C@H]1CCc2cc(-c3ccccc3-c3nnn[nH]3)ccc21 | Human recombinant AT1 receptor (Homo sapiens) | class 0 |
| CCc1nc2c(C)cc(CCc3cccc(OC)c3)nc2n1[C@H]1CCc2cc(-c3ccccc3-c3nnn[nH]3)ccc21 | Human recombinant AT1 receptor (Homo sapiens) | class 1 |
| CCc1nc2c(C)cc(Cc3ccccn3)nc2n1[C@H]1CCc2cc(-c3ccccc3-c3nnn[nH]3)ccc21 | Human recombinant AT1 receptor (Homo sapiens) | class 0 |
| CCc1nc2c(C)cc(COC(C)C)nc2n1[C@H]1CCc2cc(-c3ccccc3-c3nnn[nH]3)ccc21 | Human recombinant AT1 receptor (Homo sapiens) | class 1 |
| CCc1nc2c(C)cc(COC(C)(C)C)nc2n1[C@H]1CCc2cc(-c3ccccc3-c3nnn[nH]3)ccc21 | Human recombinant AT1 receptor (Homo sapiens) | class 1 |
| CCc1nc2c(C)cc(CCC3(O)CCOC3)nc2n1[C@H]1CCc2cc(-c3ccccc3-c3nnn[nH]3)ccc21 (stereo partly shown) | Human recombinant AT1 receptor (Homo sapiens) | class 1 |

---

target-under-test: human PPARγ LBD bound to Gal4 DBD (Homo sapiens)
Construct: expressed in transfected cells; host or cells: HepG2
Sequence (P37231 238-503 limits assumed): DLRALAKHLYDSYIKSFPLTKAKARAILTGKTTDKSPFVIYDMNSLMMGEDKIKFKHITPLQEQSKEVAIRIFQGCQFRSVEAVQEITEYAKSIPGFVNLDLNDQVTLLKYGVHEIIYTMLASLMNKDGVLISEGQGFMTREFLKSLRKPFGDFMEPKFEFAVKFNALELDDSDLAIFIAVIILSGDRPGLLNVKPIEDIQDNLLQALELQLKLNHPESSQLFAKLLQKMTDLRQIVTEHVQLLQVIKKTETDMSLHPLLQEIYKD
method-notes: PPARγ transfection luciferase reporter assay in HepG2 cells
Format: cell-based
condition-info: HepG2, 24 h; compared to full agonist response (standard TZD full agonist); read-out: PPARγ % activation

| molecule | measurement-unit | Emax |
| --- | --- | --- |
| CCc1nc2c(C)cc(CCc3ccc(OC)cc3)nc2n1[C@H]1CCc2cc(-c3ccccc3-c3nnn[nH]3)ccc21 | % | 21 |
| CCc1nc2c(C)cc(COC(C)(C)C)nc2n1[C@H]1CCc2cc(-c3ccccc3-c3nnn[nH]3)ccc21 | % | 48 |
| CCc1nc2c(C)cc(CCc3cccc(OC)c3)nc2n1[C@H]1CCc2cc(-c3ccccc3-c3nnn[nH]3)ccc21 | % | 31 |
| CCc1nc2c(C)cc(CC(C)O)nc2n1[C@H]1CCc2cc(-c3ccccc3-c3nnn[nH]3)ccc21 (mixture of isomers) | % | 19 |

---

target-under-test: UniProtKB P37231
Sequence (P37231 238-503 limits assumed): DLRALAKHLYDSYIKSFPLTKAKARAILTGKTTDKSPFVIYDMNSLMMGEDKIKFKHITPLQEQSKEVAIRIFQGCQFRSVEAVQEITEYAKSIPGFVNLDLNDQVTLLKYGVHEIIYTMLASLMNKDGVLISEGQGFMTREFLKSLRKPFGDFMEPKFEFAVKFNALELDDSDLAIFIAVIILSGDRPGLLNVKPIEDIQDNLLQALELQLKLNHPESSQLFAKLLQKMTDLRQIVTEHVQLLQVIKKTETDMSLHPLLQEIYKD
method-notes: PPARγ transfection luciferase reporter assay in HepG2 cells
condition-info: HepG2, 24 hours exposure
pEC50: −log10 of the molar value.

| compound | pEC50 |
| --- | --- |
| CCc1nc2c(C)cc(CC3CCCCC3O)nc2n1[C@H]1CCc2cc(-c3ccccc3-c3nnn[nH]3)ccc21 (single isomer, unassigned) [Example 64] | 7.02 |
| CCc1nc2c(C)cc(CCc3cc(C)ccc3C)nc2n1[C@H]1CCc2cc(-c3ccccc3-c3nnn[nH]3)ccc21 [Example 31] | 7.35 |
| CCc1nc2c(C)cc(/C=C/COC)nc2n1[C@H]1CCc2cc(-c3ccccc3-c3nnn[nH]3)ccc21 [Example 23] | 6.66 |
| CCc1nc2c(C)cc(CCCc3cccnc3)nc2n1[C@H]1CCc2cc(-c3ccccc3-c3nnn[nH]3)ccc21 [Example 32] | 6.29 |
| CCCc1nc2c(C)cc(CC[C@H](C)O)nc2n1[C@H]1CCc2cc(-c3ccccc3-c3nnn[nH]3)ccc21 [Example 41] | 6.02 |
| CCc1nc2c(C)cc(COC(C)C)nc2n1[C@H]1CCc2cc(-c3ccccc3-c3nnn[nH]3)ccc21 [Example 4] | 6.53 |
| CCc1nc2c(C)cc(CCc3ccccc3F)nc2n1[C@H]1CCc2cc(-c3ccccc3-c3nnn[nH]3)ccc21 [Example 26] | 6.42 |

Value source: patent US20100029710A1
